- Test system: HL-60(TB) leukemia
- experimental.details: NCI tumour cell line growth inhibition, 48 h; in the data active = GI50 below about 0.43 µM; inactive = the rest
Tick one outcome: 1 for active, 0 for inactive

Look up the recorded call for COc1cc(C2C3=C(COC3=O)N(CCO)c3cc4c(cc32)OCCO4)cc(OC)c1OC (stereo unspecified) in this test.
1

* * *

# TGI listing for each entry below
- Test system: SK-OV-3 ovarian
- experimental.details: NCI tumour cell line growth inhibition, 48 h
# value in µM; strip the unit string

Past entries and their recorded results:
1. O=C(c1ccc(Cl)cc1)N1CCN=C1c1cc2ccccc2c2ccccc12 ... 29.6
2. CN(C)CCCn1c(=O)c2ccccc2c2cnc3[nH]ccc3c21 ... 7.11

# lookup: TGI of CS(=O)(=O)OCCCNCCCOS(C)(=O)=O
7470

* * *

- Tested on: HS 578T breast
- experimental.details: NCI tumour cell line growth inhibition, 48 h
Label rule met for high-side TGI (at or above 9 µM) and rule not met for low-side TGI (below it).

1. O=[N+]([O-])/C(C(Cl)=C(Cl)Cl)=C(/Nc1cccc2cccnc12)n1nnc2ccccc21 ... rule met

Hi team, for O=C(O)c1cccc(NC(C(=O)c2ccccc2)c2ccccc2)c1 (stereo not given) , is the recorded TGI at or above 9 µM?
rule met

Hi team, for CNCCCNc1nc2ccccc2c2c(=O)c3cc(OC)ccc3sc12 , is the recorded TGI at or above 9 µM?
rule not met

* * *

- Test system: SR leukemia
- experimental.details: NCI tumour cell line growth inhibition, 48 h; in the data active means GI50 below about 0.43 µM; inactive means the rest
Tick one outcome: active, inactive

1. Cc1cc(-c2c(F)cc3c4nn([C@H]5CC[C@@H](N(C)C)CC5)c(=O)c-4cn(C4CC4)c3c2F)cc(C)n1 ... active

Look up the recorded call for CN=C1C=CC(=C(c2ccc(N(C)C)cc2)c2ccc(N(C)C)cc2)C=C1 in this test.
active

Look up the recorded call for CC(=O)OC12C=C(C)C(C(C)C1)C1C(=O)N(CCN3CCCCC3)C(=O)C12 (stereo not given) in this test.
inactive

Look up the recorded call for C#Cc1cccc(Nc2nc(Cl)nc3cc(NC(=O)CCl)ccc23)c1 in this test.
inactive

Look up the recorded call for N#CC1=C(N)Oc2c(ccc3ccccc23)C1c1cc(=O)oc2ccc(Cl)cc12 (stereo not given) in this test.
inactive

Look up the recorded call for O=C(Nc1ccccc1I(=O)=O)C1CCCCC1 in this test.
inactive

Look up the recorded call for CCN(CC)CCCC(C)Nc1cc(-c2cccc(OC(F)(F)F)c2)nc2ccc(N3CCCC3)cc12 (stereo not given) in this test.
active

Look up the recorded call for O=C(CN(/C=C/C(=O)C(F)(F)F)c1ccc(Cl)cc1)c1ccc(Cl)c(Cl)c1 in this test.
inactive

Look up the recorded call for COc1ccc(-c2cncn2-c2cc(OC)c(OC)c(OC)c2)cc1 in this test.
inactive

Look up the recorded call for COc1cc(C2C3=C(COC3=O)N(CCO)c3cc4c(cc32)OCCO4)cc(OC)c1OC (stereo not given) in this test.
active

* * *

- System: SNB-78 CNS
- experimental.details: NCI tumour cell line growth inhibition, 48 h
# TGI listing for each entry below

Past entries and their recorded results:
1. O=C(C(=O)n1ncc(Cl)c(Cl)c1=O)n1ncc(Cl)c(Cl)c1=O ... 88.2 µM
2. O=c1c2ccccc2nc2ccc3c(Cl)[nH][nH]c3c12 ... > 100 µM
3. C=C1C(C)C2C(Cc3ccccc3)NC(=O)C23OC(=O)/C=C\CC(=O)CCC(C)C/C=C/C3C1O (centres undefined) ... 2.08 µM
4. COc1ccccc1NC(=O)C1=C(C)NC(C)=C(C(=O)Nc2ccccc2OC)C1/C=C/c1ccccc1 ... > 100 µM
5. CS(=O)(=O)OCCCNCCCOS(C)(=O)=O ... 8530 µM

Next up:
# lookup: TGI of C1CN(c2nnc(N3CCC3)nn2)C1
> 100 µM
